Reference source: PubChem BioAssay (NCATS)

- Tested On: Rap guanine nucleotide exchange factor 3 (Homo sapiens)
- Assay Text: Counterscreen qHTS for agonist of cAMP-regulated guanine nucleotide exchange factor 3 (EPAC1) (AID 1645889); also: % of control where 0% means no effect; nearly all actives have a fitted effect of over 40% in size
- Condition Details: EPAC1 Rap1B-BODIPY-GDP exchange, fluorescence; series mostly up to 154 µM
Inconclusive results are not listed. The source made the active and inactive calls. Calls follow the shape of the dose curve; as a rule, active = well fitted activation curve with a large enough effect; inconclusive = small, poorly fitted or top-dose-only effect, or another doubt; inactive = no such curve, though single readings can be large or run the other way.

| Compound | activation |
| --- | --- |
| CN(Cc1ccccc1)C(=O)C1CCCN(Cc2cccc(Cl)c2)C1 (stereo unspecified) | inactive |
| CC1(C)[C@@H](O)CC[C@]2(C)C3C(O)C=C4[C@H]5C[C@@](C)(CO)CC[C@]5(C)CC[C@]4(C)[C@]3(C)CC[C@@H]12 (stereo partly specified) | -1.49% [at 30.8 µM] (inactive) |
| Cc1ccc(-c2ccc(CN3C(CC(C)C)C(=O)N(Cc4cn(CCC5OCCO5)nn4)CCS3(=O)=O)cc2)cc1 (stereo unspecified) | inactive |
| Cc1ccc(S(=O)(=O)Nc2ccc3cc([N+](=O)[O-])ccc3c2[N+](=O)[O-])cc1 | inactive |
| CCOC(=O)N1c2ccccc2Sc2ccccc21 | 15.6% [at 30.8 µM] (inactive) |
| O=C(O)CC/C(=C\c1cccc(NC(=O)c2ccccc2Cl)c1)c1nc2ccccc2s1 | inactive |
| O=C(Nc1cccnc1)c1c(O)c2cccc3c2n(c1=O)CC3 | 22.3% [at 30.8 µM] (inactive) |
| Cc1ccc(Nc2c([N+](=O)[O-])c(=O)oc3ccccc23)cc1C | inactive |
| N#C/C(=N\Nc1cccc(C(F)(F)F)c1)C(=O)c1ccsc1 | inactive |
| O=C(Nc1cc(C(F)(F)F)ccc1Cl)c1nc2ccccc2nc1N1CCCCC1 | inactive |
| CC(C)(C(=O)N1CCC1(C)C(=O)NS(=O)(=O)c1cccc(Cl)c1)c1ccccc1 (stereo unspecified) | inactive |
| O=C1C(=Cc2ccccc2Cl)CCc2ccccc21 | inactive |
| CC1=C(C(=O)OCc2ccccc2)C(c2ccc(Cl)cc2Cl)NC(=O)N1CCCCCC(=O)O (stereo unspecified) | inactive |
| O=C(CSc1n[nH]c(-c2ccccc2)n1)c1ccc(O)c(O)c1 | inactive |
| Clc1cccc(-c2ccc3nccn3c2)c1Cl | inactive |
| CCOc1cccc2sc(N3CCN(C(=O)C(C)(C)C)CC3)nc12 | inactive |

###

- Tested On: Phenylethanolamine N-methyltransferase (Homo sapiens) (UniProt P11086)
- Sequence (P11086 whole entry, looked up): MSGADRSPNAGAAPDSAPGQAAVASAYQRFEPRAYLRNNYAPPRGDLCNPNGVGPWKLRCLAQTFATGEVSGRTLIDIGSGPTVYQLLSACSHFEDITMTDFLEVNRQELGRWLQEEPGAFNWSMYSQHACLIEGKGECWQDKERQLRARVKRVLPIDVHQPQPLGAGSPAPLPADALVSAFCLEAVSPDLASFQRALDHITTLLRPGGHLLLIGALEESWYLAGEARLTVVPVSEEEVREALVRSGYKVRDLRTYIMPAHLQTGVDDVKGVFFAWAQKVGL
- Assay Text: Confirmatory Screen for Target Class Profiling of Small Molecule Inhibitors of Methyltransferases (AID 1745852)
- Condition Details: MTase-Glo luminescence, SAH detection, recombinant enzyme; measured here: PNMT max response; stronger effect = lower value
Listed here are compounds together with their documented activity.
Measured Property: activity (%)

| Compound | Measured Property | Value Measured |
| --- | --- | --- |
| CC(C)c1ccc(NC(=O)Cn2c(=O)oc3cc(S(=O)(=O)NCc4ccccc4)ccc32)cc1 | activity | 0 |
| CN1CCN(C)c2cnc(-c3cnn(Cc4ccccc4)c3)cc2C1 | activity | 8.78 |
| CCCC1c2cccn2CCN1C(=O)Nc1ccccc1C(F)(F)F (configuration not stated) | activity | -13.3 |
| O=C(NCc1ccc2c(c1)OCO2)c1sc(=S)n2c1[nH]c(=O)c1ccccc12 | activity | -48.8 |
| COc1ncccc1-c1nccn2c(C3CN(Cc4ccccc4O)C3)ncc12 | activity | 3.8 |
| CCOC(=O)C1CCCN(S(=O)(=O)c2ccc3[nH]c(=O)[nH]c3c2)C1 (configuration not stated) | activity | -50.4 |
| O=C(CCc1ccccc1)N1CCNc2cnc(Nc3cccnc3)nc2C1 | activity | -41.2 |
| NC(=O)c1cccc2[nH]c(-c3ccc([C@@H]4CCCN4)cc3F)nc12 | activity | -6.69 |
| Cc1ccsc1CCNC(=O)Cn1c(=O)oc2cc(S(=O)(=O)N3CCCC3)ccc21 | activity | -81.8 |
| COc1ccc(CCNc2nc3c(S(=O)(=O)c4ccccc4)nnn3c3ccccc23)cc1OC | activity | -12.4 |
| CC(C)Cn1c(=O)c2ccccc2n2c(CCC(=O)N3CCN(c4ccccc4)CC3)nnc12 | activity | -1.48 |
| CCCC1c2cccn2CCN1C(=O)Nc1ccc(C)cc1Cl (configuration not stated) | activity | -0.613 |

###

- Tested On: Rap guanine nucleotide exchange factor 3 (Homo sapiens) (UniProt O95398)
- Sequence (O95398 whole entry, looked up): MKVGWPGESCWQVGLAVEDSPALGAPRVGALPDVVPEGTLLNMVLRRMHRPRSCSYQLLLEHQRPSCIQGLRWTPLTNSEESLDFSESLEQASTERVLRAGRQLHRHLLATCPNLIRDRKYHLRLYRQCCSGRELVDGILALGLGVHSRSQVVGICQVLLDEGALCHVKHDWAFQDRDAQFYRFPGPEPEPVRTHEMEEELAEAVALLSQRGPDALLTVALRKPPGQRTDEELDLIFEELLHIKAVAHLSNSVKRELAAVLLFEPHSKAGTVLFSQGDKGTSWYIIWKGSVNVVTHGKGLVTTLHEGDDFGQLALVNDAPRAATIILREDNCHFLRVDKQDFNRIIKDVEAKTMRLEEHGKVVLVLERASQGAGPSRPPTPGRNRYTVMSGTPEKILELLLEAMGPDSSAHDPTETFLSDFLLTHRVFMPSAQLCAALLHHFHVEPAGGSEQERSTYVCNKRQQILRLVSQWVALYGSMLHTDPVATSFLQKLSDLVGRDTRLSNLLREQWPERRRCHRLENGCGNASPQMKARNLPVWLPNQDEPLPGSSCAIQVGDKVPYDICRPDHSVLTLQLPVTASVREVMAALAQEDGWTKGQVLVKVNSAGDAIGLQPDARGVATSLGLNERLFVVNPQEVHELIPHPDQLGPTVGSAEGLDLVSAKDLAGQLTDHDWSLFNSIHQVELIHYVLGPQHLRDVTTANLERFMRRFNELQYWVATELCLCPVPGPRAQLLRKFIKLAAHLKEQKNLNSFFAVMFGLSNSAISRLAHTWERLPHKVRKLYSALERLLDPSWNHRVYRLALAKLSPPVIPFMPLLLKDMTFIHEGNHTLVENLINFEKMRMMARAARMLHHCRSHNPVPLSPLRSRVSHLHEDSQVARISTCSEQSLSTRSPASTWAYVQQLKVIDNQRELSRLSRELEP
- Assay Text: Counterscreen qHTS for antagonist of cAMP-regulated guanine nucleotide exchange factor 3 (EPAC1) (AID 1645888);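 also: fluorescence loss as bound BODIPY-GDP is released from Rap1B; % of control where 0% means no effect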
- Condition Details: Rap1B-BODIPY-GDP nucleotide exchange, fluorescence; series mostly up to 154 µM
Results filed as inconclusive are left out. Active and inactive are the calls of the source. Calls come from the whole dose curve; as a rule, active = well fitted inhibition curve with a large enough effect; inconclusive = small, poorly fitted or top-dose-only effect; inactive = no such curve, though single readings can be large or run the other way.
Measured Property: activity change, negative = inhibition

| Compound | Value Measured |
| --- | --- |
| Cc1ccccc1CN(C)CC(=O)Nc1c(C)cccc1C(C)C | -6.66% [at 30.8 µM] (inactive) |
| CN(C)/C=C/c1onc(-c2c(Cl)cccc2Cl)c1C#N | inactive |
| COc1ccc(-c2cc(C(=O)N(C)CC(=O)Nc3ccccc3Cl)c3ccccc3n2)cc1OC | -9.19% [at 30.8 µM] (inactive) |
| CC(=O)Nc1ccc(N(C(=O)Cn2nnc3ccccc32)C(C(=O)NC2CCCC2)c2ccc(O)c(O)c2)cc1 (configuration not stated) | inactive |
| O=C(c1cccs1)N(Cc1cccnc1)c1nc2c(Cl)cccc2s1 | inactive |
| O=C(Nc1cccc(S(=O)(=O)NCc2ccco2)c1)c1cc(-c2ccccc2)nc2ccccc12 | inactive |
| Cc1ccc(C)c(Oc2nnnn2-c2ccccc2)c1 | inactive |
| COCCn1c(SCC(=O)c2c(C)[nH]c3ccccc23)nc2cc(C(=O)NC(C)C)ccc2c1=O | inactive |
| O=C(CSc1n[nH]c(=O)[nH]c1=O)Nc1ccc2c(c1)C(=O)c1ccccc1C2=O | inactive |
| CC(C)(C)Cc1c(-c2ccccc2)nc2ccc(Cl)cn12 | -2.23% [at 30.8 µM] (inactive) |
| O=C1C(Cl)=C(NS(=O)(=O)c2ccc([N+](=O)[O-])cc2)C(=O)c2ccccc21 | 11.7% [at 30.8 µM] (inactive) |
| COc1ccccc1N(CC(=O)Nc1ccc(Br)cc1F)S(=O)(=O)c1cccs1 | inactive |
| COC(=O)c1c(C)c2c(C)cc3ccccn3c-2c1C(=O)OC | 9.53% [at 30.8 µM] (inactive) |
| CCn1c(=O)c(C(=O)NNS(=O)(=O)c2ccc(C)cc2)c(O)c2ccccc21 | inactive |
| COc1ccc(OC)c(/C=C/c2nc3ccccc3[nH]c2=O)c1 | inactive |
| Nc1nc(CSc2ccc(Cl)cc2)nc(N2CCCCC2)n1 | inactive |
| Cc1ccc(/C=C/C(=O)Nc2nnc(SCc3ccc(C#N)cc3)s2)o1 | inactive |

###

- Tested On: Ubiquitin carboxyl-terminal hydrolase 1 (Homo sapiens) (UniProt O94782)
- Sequence (O94782 whole entry, looked up): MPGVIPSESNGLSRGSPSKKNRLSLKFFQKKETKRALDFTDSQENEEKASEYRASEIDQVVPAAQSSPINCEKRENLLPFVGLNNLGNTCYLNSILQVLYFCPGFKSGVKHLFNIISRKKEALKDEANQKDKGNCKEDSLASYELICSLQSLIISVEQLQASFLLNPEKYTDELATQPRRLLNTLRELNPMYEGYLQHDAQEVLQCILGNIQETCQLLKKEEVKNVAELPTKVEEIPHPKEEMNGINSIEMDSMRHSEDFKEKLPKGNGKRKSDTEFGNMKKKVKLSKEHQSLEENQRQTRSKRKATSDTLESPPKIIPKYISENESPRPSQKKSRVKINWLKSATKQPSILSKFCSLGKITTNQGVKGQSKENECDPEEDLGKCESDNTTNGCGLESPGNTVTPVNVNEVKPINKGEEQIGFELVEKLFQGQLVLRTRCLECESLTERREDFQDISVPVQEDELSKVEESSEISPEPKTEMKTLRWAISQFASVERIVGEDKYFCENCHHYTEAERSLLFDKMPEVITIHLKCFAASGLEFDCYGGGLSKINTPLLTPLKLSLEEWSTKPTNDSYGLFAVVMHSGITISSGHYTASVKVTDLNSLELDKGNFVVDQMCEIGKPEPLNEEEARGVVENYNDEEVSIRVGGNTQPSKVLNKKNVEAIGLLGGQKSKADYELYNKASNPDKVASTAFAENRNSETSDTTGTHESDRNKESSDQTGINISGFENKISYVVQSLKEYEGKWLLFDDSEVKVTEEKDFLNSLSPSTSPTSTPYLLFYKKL
- Assay Text: Inhibitors of USP1/UAF1: Pilot qHTS (AID 504865); also: nearly all actives have a fitted effect of over 35% in size
- Condition Details: purified USP1/UAF1, Ub-rhodamine cleavage fluorescence; series mostly up to 54.9 µM
Results filed as inconclusive are left out. The source made the active and inactive calls. Calls follow the shape of the dose curve; as a rule, active = well fitted inhibition curve with a large enough effect; inconclusive = small, poorly fitted or top-dose-only effect; inactive = flat fitted curve, though single readings scatter.
Classes used: Y = active, N = inactive

| Compound | Tested On | Cat |
| --- | --- | --- |
| COc1ccc(Oc2ncc3nc(-c4ccc(F)cc4)c(=O)n(CCC#N)c3n2)cc1 | Ubiquitin carboxyl-terminal hydrolase 1 (Homo sapiens) (UniProt O94782) | N |
| Clc1ccccc1-c1nc(-n2ccnc2)c2ccccc2n1 | Ubiquitin carboxyl-terminal hydrolase 1 (Homo sapiens) (UniProt O94782) | N |
| COc1cccc(-c2ccc3ncnc(N4CCNCC4)c3c2)c1 | Ubiquitin carboxyl-terminal hydrolase 1 (Homo sapiens) (UniProt O94782) | N |
| COc1ccccc1CNc1ncnc2ccc(-c3ccc(C(=O)N(C)C)cc3)cc12 | Ubiquitin carboxyl-terminal hydrolase 1 (Homo sapiens) (UniProt O94782) | N |
| CCNc1ncc2nc(CCc3ccccc3)c(=O)n(C3CC3)c2n1 | Ubiquitin carboxyl-terminal hydrolase 1 (Homo sapiens) (UniProt O94782) | N |
| CN1CCN(c2ncc3nc(CCc4ccccc4)c(=O)n(CCc4ccccc4)c3n2)CC1 | Ubiquitin carboxyl-terminal hydrolase 1 (Homo sapiens) (UniProt O94782) | N |
| N#CCCn1c(=O)c(-c2cccc(C#N)c2)nc2cnc(Oc3cccc(Cl)c3)nc21 | Ubiquitin carboxyl-terminal hydrolase 1 (Homo sapiens) (UniProt O94782) | N |
| C=C[C@]1(C)C[C@@H](OC(=O)CSCCN(CC)CC)[C@]2(C)C(C)CC[C@]3(CCC(=O)[C@H]32)[C@@H](C)[C@@H]1O (stereo not given in full) | Ubiquitin carboxyl-terminal hydrolase 1 (Homo sapiens) (UniProt O94782) | N |
| COc1ccccc1CNc1ncnc2ccc(-c3cccc(NS(C)(=O)=O)c3)cc12 | Ubiquitin carboxyl-terminal hydrolase 1 (Homo sapiens) (UniProt O94782) | N |
| FC(F)(F)c1ccccc1-c1nc(NCc2cccnc2)c2ccccc2n1 | Ubiquitin carboxyl-terminal hydrolase 1 (Homo sapiens) (UniProt O94782) | Y |
